target: Cellular tumor antigen p53 (Homo sapiens); experiment: TOX21_p53_BLA_p3_ratio: Tox21 HCT-116 p53 Agonism Beta-lactamase Assay, Ratio, Phase 3 (AID 2283596)
Inconclusive results are not listed. Active and inactive are the calls of the source. How the source made its calls: active means hit-call score of the fitted dose curve at least 0.9, where 1 is the maximum; inconclusive means response in the unintended direction; inactive means score below 0.9.
Outcomes: active, inactive

>>> discrete_label("COCC(=O)O[C@]1(CCN(C)CCCc2nc3ccccc3[nH]2)CCc2cc(F)ccc2[C@@H]1C(C)C")
"active"
>>> discrete_label("CC1=C(C)C(=O)C(CCCCC#CCCCC#CCO)=C(C)C1=O")
"inactive"
>>> discrete_label("CCCCCCCCCCCCCCCC(=O)OC(C)C")
"inactive"
>>> discrete_label("COc1ccc(C(=O)c2ccccc2O)c(O)c1")
"inactive"
>>> discrete_label("OC[C@H]1O[C@@H](n2cnc3c2NC=NC[C@H]3O)C[C@@H]1O")
"inactive"
>>> discrete_label("CCCOc1ccc2nc(NC(=O)OC)sc2c1")
"active"
>>> discrete_label("C[N+](C)(C)CC(O)CC(=O)[O-] (stereo unspecified)")
"inactive"
>>> discrete_label("Oc1ccc(Sc2ccc(O)cc2)cc1")
"active"
>>> discrete_label("CC(NCCC(c1ccccc1)c1ccccc1)c1ccccc1 (stereo unspecified)")
"inactive"
>>> discrete_label("Cc1nc2ccccn2c(=O)c1CCN1CCC(C(=O)c2ccc(F)cc2)CC1")
"inactive"
>>> discrete_label("C[CH2][Ge]([Cl])([CH2]C)[CH2]C")
"inactive"
>>> discrete_label("NCCC(O)(P(=O)(O)O)P(=O)(O)O")
"inactive"
>>> discrete_label("CCC(C)NC(N)=O (stereo unspecified)")
"inactive"
>>> discrete_label("CCCCC(C)(O)C/C=C/[C@H]1[C@H](O)CC(=O)[C@@H]1CCCCCCC(=O)OC (stereo partly specified)")
"inactive"
>>> discrete_label("CC(CNC(=O)c1cccnc1)NC(=O)c1cccnc1 (stereo unspecified)")
"inactive"
>>> discrete_label("ClCC=CCCl")
"inactive"
>>> discrete_label("OC[C@H]1O[C@@H](O[C@H]2[C@H](O)[C@@H](O)C(O)O[C@@H]2CO)[C@H](O)[C@@H](O)[C@@H]1O (stereo partly specified)")
"inactive"
>>> discrete_label("CCCCC(CC)COC(=O)C=Cc1ccc(OC)cc1 (stereo unspecified)")
"inactive"
>>> discrete_label("O=C(O)c1ccc(Cl)c(Cl)c1")
"inactive"
>>> discrete_label("O=C(/C=C/c1ccc([N+](=O)[O-])cc1)c1ccccc1")
"inactive"
>>> discrete_label("NCCN1CCOCC1")
"inactive"

* * *

target: Retinoic acid receptor RXR-alpha (Homo sapiens); experiment: TOX21_TR_RXR_BLA_Antagonist_Followup_ratio: Tox21 Thyroid Hormone Receptor beta Retinoid X Receptor alpha (RXRa) Antagonism Beta-lactamase (BLA) Follow-Up Assay, Ratio (AID 2283972)
Results filed as inconclusive are left out. The source made the active and inactive calls. How the source made its calls: active means hit-call score of the fitted dose curve at least 0.9, where 1 is the maximum; inconclusive means response in the unintended direction; inactive means score below 0.9.
Classes used: active, inactive

>>> discrete_label("CC(C)n1c(/C=C/[C@@H](O)C[C@@H](O)CC(=O)O)c(-c2ccc(F)cc2)c2ccccc21")
"inactive"
>>> discrete_label("CO[C@H](C(=O)[C@@H](O)[C@@H](C)O)C1Cc2cc3cc(O[C@H]4C[C@@H](O[C@H]5C[C@@H](O)[C@H](O)[C@@H](C)O5)[C@@H](O)[C@@H](C)O4)c(C)c(O)c3c(O)c2C(=O)[C@H]1O[C@H]1C[C@@H](O[C@H]2C[C@@H](O[C@H]3C[C@](C)(O)[C@H](O)[C@@H](C)O3)[C@H](O)[C@@H](C)O2)[C@H](O)[C@@H](C)O1 (stereo partly drawn)")
"active"
>>> discrete_label("O=C1C(=O)c2ncccc2-c2cccnc21")
"inactive"
